Hey, just so you know, these numbers are from the supplement of paper PMC10065799.

system: c-Abl (mouse); experiment: phosphorylation enrichment, bacterial display (enrichment ratio); higher = better substrate or ligand; peptides without Tyr show the background
Where phosphorylation enrichment equals or exceeds 0.7, the correct label is criterion met; where it does not, the label is criterion not met.

# example entries with known answers
AGQEDCDRLRP [CDC42_Y64_Y64C]	criterion not met
LRWREYQRQDF [PRKRIP1_Y90_R87W_YF]	criterion met
GFVEDYRPPFY [ACVRL1_Y421_I417F]	criterion met
YKTPIYPYLLP [PLD2_Y578_T577I]	criterion met
CSSPTYRDCLQ [LARGE2_Y682_R677C]	criterion not met

Input line: Is phosphorylation enrichment for TGEKPYECVQC [ZNF24_Y335] at or above 0.7?
Output line: criterion not met

Input line: Please tell me: is the sequence LSDVIYVILRK [PMP22_Y153_G150D] at or over 0.7 in terms of phosphorylation enrichment?
Output line: criterion not met

Input line: Please tell me: is the sequence "CHKRTYKVTGL" at or over 0.7 in terms of phosphorylation enrichment?
Output line: criterion not met

###

molecular target: Grb2 SH2 (UniProt P62993); test: SH2 binding enrichment of the phosphorylated peptide, bacterial display (enrichment ratio); higher = better substrate or ligand; peptides without Tyr show the background
Sequence (P62993 whole entry, looked up): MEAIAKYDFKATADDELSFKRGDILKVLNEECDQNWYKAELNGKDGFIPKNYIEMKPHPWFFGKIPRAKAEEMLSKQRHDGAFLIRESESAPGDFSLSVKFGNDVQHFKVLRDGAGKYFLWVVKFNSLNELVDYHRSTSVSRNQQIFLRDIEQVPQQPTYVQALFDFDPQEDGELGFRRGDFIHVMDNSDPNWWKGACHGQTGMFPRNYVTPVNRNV
SH2 binding enrichment reference
Answer as a number with no unit attached.

TCFDKYTGSTY [FN1_Y101_N104S]	0.997
GCRSKYVGLWG [KCNQ1_Y184]	1.01
CITIHYNFMCN [TP53_Y234_T230I_YF]	2.19
IIRFNYLLDVL [FGFR4_Y237_S232I_YF]	2.13
QRKRAYVEIEY [MAK16_Y282]	0.675
VHKKGYNKLNQ [ZNF676_Y98_E96K]	1.08

Input line: Return reported SH2 binding enrichment; argument: GEVKAYGAGLL [TH_Y419]
Output line: 0.818

Input line: Bench note: what SH2 binding enrichment did DRLASYPEKVR [KRT13_Y118_L119P] show?
Output line: 0.845

Input line: Quick check: SH2 binding enrichment of QKKPRYEIRWK [PDGFRB_Y562] ?
Output line: 2.77

Input line: Fill in the blank: the reported SH2 binding enrichment of AGQEDCDRLRP [CDC42_Y64_Y64C] is ____.
Output line: 1.07

Input line: Sample VDDQIYFFRKP [PBRM1_Y1289_E1287Q_YF] — what was its SH2 binding enrichment?
Output line: 0.778

Input line: Dear colleague, I am looking for the recorded SH2 binding enrichment of the following sequence: STTIHYNYMCN [TP53_Y234_C229S]
Output line: 0.812

Input line: If you can, please state the reported SH2 binding enrichment value of LEDDVYRKTCT [XPA_Y257_M256V] .
Output line: 0.604

Input line: Endpoint output: SH2 binding enrichment of SHTPSYCDESL [RITA1_Y109] . Value?
Output line: 0.895

###

target: MERTK (UniProt Q12866); test: phosphorylation enrichment, bacterial display (enrichment ratio); higher = better substrate or ligand; peptides without Tyr show the background
Sequence (Q12866 whole entry, looked up): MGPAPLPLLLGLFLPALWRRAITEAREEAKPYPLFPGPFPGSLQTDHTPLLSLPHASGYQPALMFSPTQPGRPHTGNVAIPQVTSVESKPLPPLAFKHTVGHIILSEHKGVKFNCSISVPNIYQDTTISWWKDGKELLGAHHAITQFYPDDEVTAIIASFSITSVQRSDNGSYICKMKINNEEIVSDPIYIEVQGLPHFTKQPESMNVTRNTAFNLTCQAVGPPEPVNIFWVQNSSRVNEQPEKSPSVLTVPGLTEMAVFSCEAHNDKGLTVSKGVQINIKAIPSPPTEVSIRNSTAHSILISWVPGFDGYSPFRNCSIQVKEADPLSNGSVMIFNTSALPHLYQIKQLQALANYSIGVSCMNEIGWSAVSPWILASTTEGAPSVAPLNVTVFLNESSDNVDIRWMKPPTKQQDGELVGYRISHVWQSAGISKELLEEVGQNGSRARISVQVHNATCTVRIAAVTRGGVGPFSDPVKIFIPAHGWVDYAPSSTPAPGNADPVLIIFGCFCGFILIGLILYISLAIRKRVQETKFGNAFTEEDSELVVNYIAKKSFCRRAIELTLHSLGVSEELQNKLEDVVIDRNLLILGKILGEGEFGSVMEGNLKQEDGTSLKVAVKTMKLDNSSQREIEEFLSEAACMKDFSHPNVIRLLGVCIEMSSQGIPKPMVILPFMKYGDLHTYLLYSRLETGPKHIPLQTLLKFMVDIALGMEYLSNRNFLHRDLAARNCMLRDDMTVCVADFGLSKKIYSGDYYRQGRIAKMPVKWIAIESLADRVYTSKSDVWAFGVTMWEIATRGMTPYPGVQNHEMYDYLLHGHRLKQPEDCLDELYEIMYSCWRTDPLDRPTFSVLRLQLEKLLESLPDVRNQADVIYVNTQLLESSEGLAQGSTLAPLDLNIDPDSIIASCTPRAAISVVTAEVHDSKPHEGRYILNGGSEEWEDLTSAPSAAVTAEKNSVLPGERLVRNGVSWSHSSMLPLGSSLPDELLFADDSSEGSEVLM
Where phosphorylation enrichment equals or exceeds 0.5, the correct label is criterion met; where it does not, the label is criterion not met.

SSYDTYHLSRE [KIR3DL2_Y253_I252T]	criterion met
PLFSKYWPNHI [GREB1L_Y1560_R1558S_YF]	criterion met
GSRGKYSSGFR [ATM_Y332]	criterion met
EQLQSYQAEII [KRT33A_Y268]	criterion not met
ISISPYPAILH [IFT80_Y588_T586S]	criterion not met

Input line: Item GTHCHYKAPIV [FZD9_Y569_T573I] with phosphorylation enrichment of 0.5 or above?
Output line: criterion not met

Input line: Is the recorded value of phosphorylation enrichment equal to or greater than 0.5 for this sequence? REDIFYTSKLW [AKR1C2_Y81]
Output line: criterion met

###

Quick reference for phosphorylation enrichment among some sequences
molecular target: EPHB1 (UniProt P54762); experiment: phosphorylation enrichment, bacterial display (enrichment ratio); higher = better substrate or ligand; peptides without Tyr show the background
Sequence (P54762 whole entry, looked up): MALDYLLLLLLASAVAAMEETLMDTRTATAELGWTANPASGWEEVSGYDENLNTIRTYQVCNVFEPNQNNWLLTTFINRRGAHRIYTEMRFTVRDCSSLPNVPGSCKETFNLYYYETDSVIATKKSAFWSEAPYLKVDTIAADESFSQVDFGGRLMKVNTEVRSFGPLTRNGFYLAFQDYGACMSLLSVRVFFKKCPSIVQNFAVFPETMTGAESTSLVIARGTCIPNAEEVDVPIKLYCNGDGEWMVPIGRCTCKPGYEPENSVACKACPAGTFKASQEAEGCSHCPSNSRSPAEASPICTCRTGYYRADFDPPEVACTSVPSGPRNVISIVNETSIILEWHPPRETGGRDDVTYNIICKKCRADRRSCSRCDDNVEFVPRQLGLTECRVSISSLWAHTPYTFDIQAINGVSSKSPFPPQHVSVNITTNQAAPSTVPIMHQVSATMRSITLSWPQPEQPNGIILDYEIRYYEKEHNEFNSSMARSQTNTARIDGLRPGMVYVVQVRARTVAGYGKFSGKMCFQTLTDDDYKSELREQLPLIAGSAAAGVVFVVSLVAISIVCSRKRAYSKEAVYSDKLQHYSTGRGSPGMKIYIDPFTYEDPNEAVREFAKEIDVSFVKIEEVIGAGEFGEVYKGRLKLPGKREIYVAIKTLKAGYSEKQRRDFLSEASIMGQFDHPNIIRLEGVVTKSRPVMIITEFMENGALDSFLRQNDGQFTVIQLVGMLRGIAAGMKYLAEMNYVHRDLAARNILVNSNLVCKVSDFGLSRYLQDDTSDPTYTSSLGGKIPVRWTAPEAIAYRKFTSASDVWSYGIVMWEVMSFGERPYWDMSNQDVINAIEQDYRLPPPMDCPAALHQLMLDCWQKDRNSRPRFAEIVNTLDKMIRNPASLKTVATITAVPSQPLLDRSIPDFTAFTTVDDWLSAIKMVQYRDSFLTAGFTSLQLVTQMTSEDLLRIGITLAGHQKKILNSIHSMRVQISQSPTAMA
Please give the numeric answer without any surrounding text.

Some sequences with recorded phosphorylation enrichment:
CNSFQYGGGGG [NPPA_Y151_R150Q]	0.501
NTFENYWPFFQ [GATM_Y103_K102N_YF]	9.64
LLVVVYKYRCY [PSEN1_Y154_L153V]	2.05
VKPENYRRPDI [VHL_Y175_L178P]	0.335
DGTIVCTGLET [USH2A_Y4487_Y4487C]	0.533

Input line: Need phosphorylation enrichment, item GGPAGYLRRAS [PKLR_Y38]
Output line: 0.406

Input line: Would you kindly share the measured phosphorylation enrichment for KSDVMYTDWKK [ORM1_Y175_V174M] ?
Output line: 0.488

###

target: Grb2 SH2 (UniProt P62993); experiment: SH2 binding enrichment of the phosphorylated peptide, bacterial display (enrichment ratio); higher = better substrate or ligand; peptides without Tyr show the background
// reported SH2 binding enrichment for each item listed

Use the examples below as a reference point.
LKRCQYVTEKV [ALDOA_Y204]	0.742
FIPSNYVAEDR [FRK_Y104_YF]	0.82
STLEVYRCHPP [IL21R_Y317_S318R]	0.715
QRKPSYNQLAS [BRCA2_Y71]	1.59
EQLQSYQAEII [KRT33A_Y268]	0.708

Input line: Hello, I am looking for reported SH2 binding enrichment with Grb2 SH2 (UniProt P62993) for TNYSLYLRSLE [MTM1_Y71_R69S] . Could you help?
Output line: 1.01

Input line: Form: Entry = SGGLDYGMVGG [TNRC6B_Y1382_M1380L] | System = Grb2 SH2 (UniProt P62993) | SH2 binding enrichment = ____
Output line: 0.775

###

target: EPHB2 (UniProt P29323); assay: phosphorylation enrichment, bacterial display (enrichment ratio); higher = better substrate or ligand; peptides without Tyr show the background
Sequence (P29323 whole entry, looked up): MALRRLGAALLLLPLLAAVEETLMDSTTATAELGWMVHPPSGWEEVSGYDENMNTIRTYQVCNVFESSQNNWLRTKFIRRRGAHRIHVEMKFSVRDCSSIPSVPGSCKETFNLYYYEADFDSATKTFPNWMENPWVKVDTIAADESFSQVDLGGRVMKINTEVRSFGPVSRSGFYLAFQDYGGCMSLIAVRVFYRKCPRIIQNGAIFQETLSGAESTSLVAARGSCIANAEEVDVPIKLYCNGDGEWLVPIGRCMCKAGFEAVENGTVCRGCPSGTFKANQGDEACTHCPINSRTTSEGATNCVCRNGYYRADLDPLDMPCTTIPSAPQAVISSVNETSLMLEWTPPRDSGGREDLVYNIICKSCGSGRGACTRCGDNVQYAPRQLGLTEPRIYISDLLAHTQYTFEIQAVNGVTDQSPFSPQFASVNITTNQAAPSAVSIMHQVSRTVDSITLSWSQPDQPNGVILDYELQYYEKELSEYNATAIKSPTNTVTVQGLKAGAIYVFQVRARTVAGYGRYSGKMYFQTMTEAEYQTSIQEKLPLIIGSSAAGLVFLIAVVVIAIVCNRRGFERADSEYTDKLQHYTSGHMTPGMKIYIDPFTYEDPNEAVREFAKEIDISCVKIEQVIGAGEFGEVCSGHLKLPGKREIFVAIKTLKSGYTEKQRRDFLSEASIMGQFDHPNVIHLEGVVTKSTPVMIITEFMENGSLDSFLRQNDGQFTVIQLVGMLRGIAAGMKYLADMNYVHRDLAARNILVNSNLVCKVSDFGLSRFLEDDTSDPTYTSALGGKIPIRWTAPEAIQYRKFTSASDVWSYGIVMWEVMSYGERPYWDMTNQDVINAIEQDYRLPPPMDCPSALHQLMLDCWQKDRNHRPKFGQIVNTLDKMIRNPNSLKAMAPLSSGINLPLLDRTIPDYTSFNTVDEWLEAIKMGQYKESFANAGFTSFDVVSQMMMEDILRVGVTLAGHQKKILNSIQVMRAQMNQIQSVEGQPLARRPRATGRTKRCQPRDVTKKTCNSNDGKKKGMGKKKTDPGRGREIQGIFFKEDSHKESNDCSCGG
Output 1.0 for phosphorylation enrichment not less than 0.6; output 0.0 otherwise.

IDDNQYAFLKA [HNF4A_Y286_E285Q_YF]	0.0
TNYSLYLRSLE [MTM1_Y71_R69S]	1.0

Input line: Decide: phosphorylation enrichment of IEKLPYIDKWF [CPS1_Y872_T871P] >= 0.6?
Output line: 0.0

Input line: I'd appreciate it if you could say whether YYHCTYKQRMI [CLEC12A_Y242_K244Q] has phosphorylation enrichment at least equal to 0.6.
Output line: 0.0

Input line: Hi, just wondering whether KKMKRYHVGKV [HARS2_Y151] shows phosphorylation enrichment of 0.6 or higher.
Output line: 0.0

Input line: API: above_or_equal(metric=phosphorylation enrichment, cutoff=0.6) for item GLCSFYETSKM [MAGED2_Y449_R446C_YF]
Output line: 1.0

Input line: Could you please find out whether KVKPIYFRTQG [AR_Y916_H918R] has phosphorylation enrichment that meets 0.6 or exceeds it?
Output line: 0.0

Input line: Hi, just wondering whether QFLMKYVWSAS [ABCD1_Y337] shows phosphorylation enrichment of 0.6 or higher.
Output line: 0.0

Input line: Record MRALIYNSSTA [PLEKHA7_Y243] ; criterion: phosphorylation enrichment no lower than 0.6. Met?
Output line: 0.0

Input line: Given PAKPRYRARQR [KCNJ11_Y26_E23K] , state whether its phosphorylation enrichment is at least 0.6.
Output line: 1.0

Input line: Entry RRIHSYRGHLC [VHL_Y112_W117C] : is its phosphorylation enrichment no less than 0.6?
Output line: 1.0

Input line: Test whether the sequence TTGGFYSFGGG [KRT24_Y120_A115T_YF] records phosphorylation enrichment of 0.6 or higher.
Output line: 0.0

Input line: Please indicate if the recorded phosphorylation enrichment for HYPDVYAREQL [ALX3_Y181] meets or exceeds 0.6.
Output line: 0.0

###

test system: AncSZ; experiment: phosphorylation enrichment, bacterial display (enrichment ratio); higher = better substrate or ligand; peptides without Tyr show the background
# Lookup of reported phosphorylation enrichment keyed by entry
Could you respond with only the numeric value?

LRWREYQRQDF [PRKRIP1_Y90_R87W_YF]	4.24
GADDSYFTVRS [ZAP70_Y492_A495V_YF]	1.59
IDDNQYAFLKA [HNF4A_Y286_E285Q_YF]	0.823
VDYQPYRKHKY [TEX37_Y28]	0.627
SAGSSYSISSI [PAX5_Y179_G183S]	0.65
ITVPAYFNDLQ [HSPA9_Y196_S200L]	1.13
VFPIDYFFPPQ [AR_Y552_L548F_YF]	4.04
GEKKAYVRLAP [RPL23A_Y137]	0.548
ALAHKHHGGGG [HBB_Y146_Y146H]	0.588
REDIFYTSKLW [AKR1C2_Y81]	1.07

Input line: Give the measured phosphorylation enrichment of VNTTLYEKFTF [TEK_Y1108_YF] .
Output line: 0.886

Input line: Dear colleague, I am looking for the recorded phosphorylation enrichment of the following sequence: YKTPIYPYLLP [PLD2_Y578_T577I]
Output line: 1.14

Input line: Sample PEACDYGLGGG [GSTO1_Y239] — what was its phosphorylation enrichment?
Output line: 1.78

Input line: Could you share which phosphorylation enrichment value was measured for PEAALYGRFTI [FYN_Y440] ?
Output line: 0.875

Input line: Endpoint output: phosphorylation enrichment of VEKGSYSALLA [ABCC2_Y845] . Value?
Output line: 0.648

Input line: Entry under review: FADIAYSYRHG [PAH_Y166_N167S] . Reported phosphorylation enrichment?
Output line: 0.726

Input line: Reported phosphorylation enrichment for HNELFYEAAEH [VANGL1_Y345_E347A_YF] : what is it?
Output line: 1.85

Input line: I am curious: what phosphorylation enrichment value has been reported for CITIHYNFMCN [TP53_Y234_T230I_YF] ?
Output line: 0.946

Input line: Report phosphorylation enrichment for LSGFGYRLSDQ [PDCD6_Y124] please.
Output line: 1.02

Input line: What value of phosphorylation enrichment has been reported for the following sequence? PRLMLYNPTTF [EGFR_Y270_P266R_YF]
Output line: 1.16

Input line: Entry NFRTTYVNANE [KCNH2_Y475] has what phosphorylation enrichment?
Output line: 0.892

Input line: Entry GKMSQYLESMQ [CYB5R3_Y130] : reported phosphorylation enrichment = ?
Output line: 0.646
